system: Candida tropicalis; assay: Antifungal activity against Candida tropicalis Berkout KCCM 50662 after 1 day by twofold broth dilution method; assay type: functional; details: KCCM 50662, 24 h
Each entry below lists one item and its recorded MIC value.
measured.endpoint: MIC (µg/mL)

> print(dat)
                                  cpd.smiles  experimental.system  measured.endpoint  measurement.units   val
 1  CCc1nc2c(o1)C(=O)C(Nc1cccc(O)c1)=C(Br)C2=O   Candida tropicalis                MIC              µg/mL   6.3
 2  CCc1nc2c(o1)C(=O)C(Nc1ccc(OC)cc1)=C(Br)C2=O   Candida tropicalis                MIC              µg/mL  12.5
 3  CCc1nc2c(o1)C(=O)C(Nc1ccc(Br)cc1)=C(Br)C2=O   Candida tropicalis                MIC              µg/mL   3.2
 4   CCc1nc2c(o1)C(=O)C(Nc1ccccc1)=C(Br)C2=O   Candida tropicalis                MIC              µg/mL   3.2
 5  CCc1nc2c(o1)C(=O)C(Nc1ccc([N+](=O)[O-])cc1)=C(Br)C2=O   Candida tropicalis                MIC              µg/mL    50
 6  CCc1nc2c(o1)C(=O)C(Sc1ccc(C)c(C)c1)=C(Sc1ccc(C)c(C)c1)C2=O   Candida tropicalis                MIC              µg/mL  12.5
 7  CCc1nc2c(o1)C(=O)C(Nc1ccc(I)cc1)=C(Br)C2=O   Candida tropicalis                MIC              µg/mL   6.3
 8                        CCc1nc2c(N)cccc2o1   Candida tropicalis                MIC              µg/mL    50
 9                         Nc1nc(=O)[nH]cc1F   Candida tropicalis                MIC              µg/mL   3.2
10  CCc1nc2c(o1)C(=O)C(Nc1ccc(O)cc1)=C(Br)C2=O   Candida tropicalis                MIC              µg/mL  12.5
11  CCc1nc2c(o1)C(=O)C(Nc1cccc(Cl)c1)=C(Br)C2=O   Candida tropicalis                MIC              µg/mL   6.3
12  CCc1nc2c(o1)C(=O)C(Sc1ccc(CC)c(CC)c1)=C(Sc1ccc(CC)c(CC)c1)C2=O   Candida tropicalis                MIC              µg/mL    25
13  CCc1nc2c(o1)C(=O)C(Sc1ccccc1)=C(Sc1ccccc1)C2=O   Candida tropicalis                MIC              µg/mL  12.5
14  CCc1nc2c(o1)C(=O)C(Nc1ccc(F)cc1)=C(Br)C2=O   Candida tropicalis                MIC              µg/mL   6.3
15  CCc1nc2c(o1)C(=O)C(Sc1ccc(Br)c(Br)c1)=C(Sc1ccc(Br)c(Br)c1)C2=O   Candida tropicalis                MIC              µg/mL    50
16  CCc1nc2c(o1)C(=O)C(Nc1ccc(Cl)cc1)=C(Br)C2=O   Candida tropicalis                MIC              µg/mL    25
17  CCc1nc2c(o1)C(=O)C(Nc1ccc(C#N)cc1)=C(Br)C2=O   Candida tropicalis                MIC              µg/mL    50
18  CCc1nc2c(o1)C(=O)C(Nc1cccc(F)c1)=C(Br)C2=O   Candida tropicalis                MIC              µg/mL   3.2
19  CCc1nc2c(o1)C(=O)C(Nc1cccc(C#N)c1)=C(Br)C2=O   Candida tropicalis                MIC              µg/mL   6.3
